Hey, just so you know, these numbers are from ChEMBL document CHEMBL2440044.

Test system: HeLa
protocol notes: Cytotoxicity against human HeLa cells after 48 hrs by Cell titer Glo assay
Assay type: functional, cell-based
The entries below come with measured IC50 values attached.
State the answer as a number, implicitly in µM.

Per the record, CCCCCCCCCCCC[C@@H](O)[C@H]1CC[C@H]([C@H](O)CCCCC[C@@H](O)CCCCCCC2=C[C@H](C)OC2=O)O1 has IC50 of 21

Per the record, CCCCCCCCCCCOC[C@H]1O[C@H](OCCCCCCCCCCCC[C@@H](O)CC2=C[C@H](C)OC2=O)C[C@@H](O)[C@@H]1O has IC50 of 16.3

Per the record, CCCCCCCCCCCOC[C@H]1O[C@H](OCCCCCCCCCCCC[C@@H](O)CC2=C[C@H](C)OC2=O)[C@@H](O)[C@@H](O)[C@@H]1O has IC50 of 15.2

Per the record, CCCCCCCCCCCO[C@H]1[C@@H](O)[C@@H](CO)O[C@@H](OCCCCCCCCCCCC[C@@H](O)CC2=C[C@H](C)OC2=O)[C@@H]1O has IC50 of 50.3

Per the record, CCCCCCCCCCCOC[C@@H]1CC[C@H](O)[C@@H](OCCCCCCCCCCCC[C@@H](O)CC2=C[C@H](C)OC2=O)O1 has IC50 of 13.9

Per the record, CCCCCCCCCCCOC[C@@H]1C[C@H](O)[C@H](O)[C@@H](OCCCCCCCCCCCC[C@@H](O)CC2=C[C@H](C)OC2=O)O1 has IC50 of 23.3
